Assay: Solubility in PBS
Type: physicochemical
VALUE KIND: Solubility (µM)
Answers are plain numbers, in µM.

Asked: Record request: Solubility value, item CC(=O)N1CCC[C@]12CC=CCCCC1(CCCC=CCCCOC(=O)N3CC[C@@](C(=O)N[C@@H](Cc4ccccc4Cl)C(=O)N[C@@H](Cc4csc5ccccc45)C(=O)N[C@@H](CCC(N)=O)C(=O)NCCCCCCN=[N+]=[N-])(C3)NC(=O)[C@H](Cc3ccccc3)NC(=O)[C@H](Cc3ccccc3)NC(=O)[C@H](C)NC(=O)[C@H](C)NC(=O)[C@H](CN(CC(=O)O)CC(F)(F)F)NC(=O)[C@H](CC(=O)O)NC1=O)NC(=O)[C@H](CC(C)(C)C)NC(=O)[C@H](CC(=O)O)NC2=O (stereo partly shown)
Given back: 10

* * *

Kindly supply the reported Solubility values for the records listed here.
Assay: Solubility in PBS
Assay type: physicochemical
Give bare numbers, in µM.

Asked: Any idea what its Solubility is? The compound is CC(=O)N1CCC[C@]12CC=CCCCC1(CCCC=CCCCCCC[C@@](C)(C(=O)N[C@@H](Cc3ccccc3)C(=O)N[C@@H](Cc3csc4ccccc34)C(N)=O)NC(=O)[C@H](CC(N)=O)NC(=O)[C@H](Cc3ccccc3)NC(=O)[C@H](C)NC(=O)[C@H](C)NC(=O)[C@H](CCC(=O)O)NC(=O)[C@H](CC(=O)O)NC1=O)NC(=O)[C@H](CC1CCCCC1)NC(=O)[C@H](CC(=O)O)NC2=O (stereo partly shown) [I-627]
Given back: 47

Asked: Using the record for CC(=O)N1CCC[C@]12CC=CCCCC1(CCCC=CCCCCCC[C@@](C)(C(=O)N[C@@H](Cc3ccccc3)C(=O)N[C@@H](Cc3csc4ccccc34)C(=O)N[C@@H](CCC(N)=O)C(N)=O)NC(=O)[C@H](C(C)C)NC(=O)[C@H](Cc3ccccn3)NC(=O)[C@H](C)NC(=O)[C@H](C)NC(=O)[C@H](CCC(=O)O)NC(=O)[C@H](CC(=O)O)NC1=O)NC(=O)[C@H](C)NC(=O)[C@H](CC(=O)O)NC2=O (stereo partly shown) [I-386] , report its Solubility.
Given back: 47

Asked: Which Solubility is listed for CC(=O)N1CCC[C@]12CC=CCCCC1(CCCC=CCCCOC(=O)N3CC[C@@](C(=O)N[C@@H](Cc4ccccc4Cl)C(=O)N[C@@H](Cc4csc5ccccc45)C(=O)N[C@@H](CO)C(N)=O)(C3)NC(=O)[C@H](CC(C)C)NC(=O)[C@H](Cc3ccccc3)NC(=O)[C@H](C)NC(=O)[C@H](C)NC(=O)[C@H](CC(=O)O)NC(=O)[C@H](CC(=O)O)NC1=O)NC(=O)[C@H](Cc1ccc3ccccc3c1)NC(=O)[C@H](CC(=O)O)NC2=O (stereo partly shown) ?
Given back: 10

Go through the items and report each one's Solubility.
1. CC(=O)N1CCC[C@]12CC=CCCCC1(CCCC=CCCCOC(=O)N3CC[C@@](C(=O)N[C@@H](Cc4ccccc4Cl)C(=O)N[C@@H](Cc4csc5ccccc45)C(=O)N[C@@H](CCC(N)=O)C(N)=O)(C3)NC(=O)[C@H](CC(C)C)NC(=O)[C@H](Cc3ccccc3)NC(=O)[C@H](C)NC(=O)[C@H](C)NC(=O)[C@H](CC(=O)O)NC(=O)[C@H](CC(=O)O)NC1=O)NC(=O)[C@H](Cc1cccc3ccccc13)NC(=O)[C@H](CC(=O)O)NC2=O (stereo partly shown)
2. CC[C@H](C)[C@@H]1NC(=O)[C@H](CC(=O)O)NC(=O)[C@]2(CC=CCCCC3(CCCC=CCCCCCC[C@@](C)(C(=O)N[C@@H](Cc4ccccc4)C(=O)N[C@@H](Cc4csc5ccccc45)C(=O)N[C@@H](CCC(N)=O)C(N)=O)NC(=O)[C@H](CCC(N)=O)NC(=O)[C@H](Cc4ccccc4)NC(=O)[C@H](C)NC(=O)[C@H](C)NC(=O)[C@H](CCC(N)=O)NC(=O)[C@H](CC(=O)O)NC3=O)NC1=O)CCCN2C(C)=O (stereo partly shown)
3. CC(=O)N1CCC[C@]12CC=CCCCC1(CCCC=CCCCOC(=O)N3CC[C@@](C(=O)N[C@@H](Cc4ccccc4Cl)C(=O)N[C@@H](Cc4csc5ccccc45)C(=O)N[C@@H](CCC(N)=O)C(=O)NCCCCCCN)(C3)NC(=O)[C@H]([C@@H](C)O)NC(=O)[C@H](Cc3ccccc3)NC(=O)[C@H](C)NC(=O)[C@H](C)NC(=O)[C@H](CN(CC(=O)O)CC(F)(F)F)NC(=O)[C@H](CC(=O)O)NC1=O)NC(=O)[C@H](CC(C)(C)C)NC(=O)[C@H](CC(=O)O)NC2=O (stereo partly shown)
4. CC(=O)N1CCC[C@H]1C(=O)N[C@@H](CC(=O)O)C(=O)N[C@@H](CC(C)(C)C)C(=O)N[C@]1(C)CCCC=CCCCOC(=O)N2CC[C@@](C(=O)N[C@@H](Cc3ccccc3Cl)C(=O)N[C@@H](Cc3csc4ccccc34)C(=O)N[C@@H](CCC(N)=O)C(N)=O)(C2)NC(=O)[C@H](CC(N)=O)NC(=O)[C@H](Cc2ccccc2)NC(=O)[C@H](C)NC(=O)[C@H](C)NC(=O)[C@H](CC(=O)O)NC(=O)[C@H](CC(=O)O)NC1=O
5. CC(=O)N1CCC[C@]12CC=CCCCC1(CCCC=CCCCCCC[C@@](C)(C(=O)N[C@@H](Cc3ccccc3)C(=O)N[C@@H](Cc3csc4ccccc34)C(N)=O)NC(=O)[C@H](CC(N)=O)NC(=O)[C@H](Cc3ccccc3)NC(=O)[C@H](C)NC(=O)[C@H](C)NC(=O)[C@H](CCC(=O)O)NC(=O)[C@H](CC(=O)O)NC1=O)NC(=O)[C@H](CC(C)C)NC(=O)[C@H](CC(=O)O)NC2=O (stereo partly shown) [I-624]

Given back:
10
10
10
50
27

Working through the 2 compounds below one at a time, give Solubility for each.
1. CC(=O)N1CCC[C@]12CC=CCCCC1(CCCC=CCCCOC(=O)N3CC[C@@](C(=O)N[C@@H](Cc4ccccc4Cl)C(=O)N[C@@H](Cc4csc5ccccc45)C(=O)N[C@H](C(N)=O)[C@@H](C)O)(C3)NC(=O)[C@H](CC(C)C)NC(=O)[C@H](Cc3ccccc3)NC(=O)[C@H](C)NC(=O)[C@H](C)NC(=O)[C@H](CCC(=O)O)NC(=O)[C@H](CC(=O)O)NC1=O)NC(=O)[C@H](CC(C)(C)C)NC(=O)[C@H](CC(=O)O)NC2=O (stereo partly shown) [I-1070]
2. CC(=O)N1CCC[C@]12CC=CCCCC1(CCCC=CCCCOC(=O)N3CC[C@@](C(=O)N[C@@H](Cc4ccccc4)C(=O)N[C@@H](Cc4csc5ccccc45)C(=O)N[C@@H](CCC(N)=O)C(N)=O)(C3)NC(=O)[C@H](CC(N)=O)NC(=O)[C@H](Cc3ccccc3)NC(=O)[C@H](C)NC(=O)[C@H](C)NC(=O)[C@H](CCC(=O)O)NC(=O)[C@H](CC(=O)O)NC1=O)NC(=O)[C@H](CC(C)(C)C)NC(=O)[C@H](CC(=O)O)NC2=O (stereo partly shown) [I-684]

Given back:
10
44
